Source of measurements: ChEMBL document CHEMBL4477233

Target: Serine/threonine-protein kinase TAO2 (Rattus norvegicus)
Sequence (whole entry): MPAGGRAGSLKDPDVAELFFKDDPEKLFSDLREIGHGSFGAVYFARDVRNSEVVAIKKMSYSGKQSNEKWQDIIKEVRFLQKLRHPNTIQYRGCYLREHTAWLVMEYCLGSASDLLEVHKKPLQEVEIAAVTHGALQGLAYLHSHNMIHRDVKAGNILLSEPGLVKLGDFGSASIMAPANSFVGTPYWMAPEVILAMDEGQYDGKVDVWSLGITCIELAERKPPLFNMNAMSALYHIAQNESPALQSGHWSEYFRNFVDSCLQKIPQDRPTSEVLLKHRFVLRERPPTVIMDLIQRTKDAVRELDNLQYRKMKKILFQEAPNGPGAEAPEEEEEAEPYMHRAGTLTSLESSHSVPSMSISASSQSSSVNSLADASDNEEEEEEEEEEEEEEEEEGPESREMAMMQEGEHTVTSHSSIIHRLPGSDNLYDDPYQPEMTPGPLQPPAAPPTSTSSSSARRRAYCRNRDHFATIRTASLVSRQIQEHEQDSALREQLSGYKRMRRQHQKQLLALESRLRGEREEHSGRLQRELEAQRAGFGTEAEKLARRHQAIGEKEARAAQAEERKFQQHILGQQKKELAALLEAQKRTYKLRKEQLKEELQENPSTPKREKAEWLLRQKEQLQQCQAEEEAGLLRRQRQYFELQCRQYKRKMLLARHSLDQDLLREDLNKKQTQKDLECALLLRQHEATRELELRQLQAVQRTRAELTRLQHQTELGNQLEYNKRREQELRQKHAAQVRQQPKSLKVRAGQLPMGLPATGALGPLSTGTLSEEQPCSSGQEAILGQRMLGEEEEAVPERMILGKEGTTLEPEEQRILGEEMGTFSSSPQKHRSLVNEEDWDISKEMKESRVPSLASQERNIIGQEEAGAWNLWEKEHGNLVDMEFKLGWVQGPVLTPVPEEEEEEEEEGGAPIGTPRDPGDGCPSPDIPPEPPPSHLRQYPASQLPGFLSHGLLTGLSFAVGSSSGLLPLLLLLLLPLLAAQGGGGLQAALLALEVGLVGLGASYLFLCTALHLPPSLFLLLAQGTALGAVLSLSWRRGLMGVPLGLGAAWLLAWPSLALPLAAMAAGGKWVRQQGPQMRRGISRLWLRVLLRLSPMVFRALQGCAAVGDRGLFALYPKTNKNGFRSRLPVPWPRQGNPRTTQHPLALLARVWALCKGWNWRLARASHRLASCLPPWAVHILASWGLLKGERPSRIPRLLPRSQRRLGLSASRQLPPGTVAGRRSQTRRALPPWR
Test: Binding affinity to rat TAOK2 (1 to 320 residues) expressed in Baculovirus/insect cell expression system assessed as change in melting temperature at 1 uM by SYPRO orange dye-based DSF analysis
measuredProperty: ΔTm

QUERY: Param item = CCOCCCn1c(=S)[nH]c2cc(C(=O)NCC3COc4ccccc4O3)ccc2c1=O (stereo unspecified) ; retrieve measured ΔTm.
RESULT: 2 °C

QUERY: For O=C(Nc1cccc(-c2nc3ccccc3c(=O)o2)c1)c1ccccc1Br then?
RESULT: -0.6 °C

QUERY: Item: O=C(NCC1COc2ccccc2O1)c1ccc(NC(=O)c2ccco2)cc1 (stereo unspecified)
RESULT: 1.6 °C

QUERY: What do you have for Cc1cccc(NC(=S)N/N=C/c2c[nH]c3ccccc23)c1 ?
RESULT: 0.5 °C

QUERY: # repeat for Cc1ccc(NCCCC(=O)N/N=C/c2cc(Br)cc(Br)c2O)cc1
RESULT: 1.6 °C

QUERY: Now consider COc1ccc(O)c(/C=C2/SC(=S)NC2=O)c1 .
RESULT: -0.2 °C

QUERY: Consider next the compound Cc1ccc(C(=O)CSc2nnc(-c3ccncc3)[nH]2)c(C)c1 in the same way.
RESULT: 0.7 °C

QUERY: Similarly, CS(=O)(=O)c1ccc2nc(NC(=O)CCCOc3ccc(Cl)cc3)sc2c1 ?
RESULT: 1.3 °C

QUERY: Again, but for c1cc2[nH]c3c(c2c2nonc12)CCCC3
RESULT: 1.2 °C

QUERY: For CCC(=O)Nc1nc(C)c(-c2csc(Nc3cc(OC)ccc3OC)n2)s1 then?
RESULT: 3 °C

QUERY: Also O=C(O)c1cc(-c2ccc(-c3ccccc3[N+](=O)[O-])o2)nc2ccc3ccccc3c12 ?
RESULT: 2.2 °C
